Collected Emax at 3 µM values appear next to each entry.
System: ABCA1 mRNA in THP-1 cells
Test description: ABCA1 bDNA assay (ABCA1 mRNA induction)
Type: cell-based
Assay context: Homo sapiens, @3 μM, relative to MX-6054, read-out: ABCA1 % max MX-6054
Give the value in % but do not write % after it.

{"Compound": "Cc1cc2c(cc1-c1cc(/C=C/C(=O)O)ccc1OC(F)(F)F)N(C)C(=O)C(C)(C)O2", "Units text": "%", "Readout number": 8.4}

Field: Emax at 3 µM (ABCA1 mRNA in THP-1 cells). Entry: CCN1C(=O)OC(C(C)C)c2cc(C)c(-c3cc(CCC(=O)O)ccc3OC(F)(F)F)cc21 (stereo not shown)
4.5

Entry `CCN1C(=O)C(C)(C)Oc2cc(C)c(-c3cc(/C=C(\C)C(=O)O)ccc3OC(F)(F)F)cc21` , system ABCA1 mRNA in THP-1 cells: what Emax at 3 µM was measured?
37.2

Can you look up Emax at 3 µM on ABCA1 mRNA in THP-1 cells for CCN1C(=O)C(C)(C)Oc2cc(C)c(-c3cc([C@@H]4C[C@H]4C(=O)O)ccc3OC(F)(F)F)cc21 (racemic) ?
28.6
